test.target: LGR5 (Homo sapiens, UniProt O75473)
Construct: purchased Promega (in-house HiBiT-GPCR construct library, NanoBRET)
Sequence (O75473 22-907): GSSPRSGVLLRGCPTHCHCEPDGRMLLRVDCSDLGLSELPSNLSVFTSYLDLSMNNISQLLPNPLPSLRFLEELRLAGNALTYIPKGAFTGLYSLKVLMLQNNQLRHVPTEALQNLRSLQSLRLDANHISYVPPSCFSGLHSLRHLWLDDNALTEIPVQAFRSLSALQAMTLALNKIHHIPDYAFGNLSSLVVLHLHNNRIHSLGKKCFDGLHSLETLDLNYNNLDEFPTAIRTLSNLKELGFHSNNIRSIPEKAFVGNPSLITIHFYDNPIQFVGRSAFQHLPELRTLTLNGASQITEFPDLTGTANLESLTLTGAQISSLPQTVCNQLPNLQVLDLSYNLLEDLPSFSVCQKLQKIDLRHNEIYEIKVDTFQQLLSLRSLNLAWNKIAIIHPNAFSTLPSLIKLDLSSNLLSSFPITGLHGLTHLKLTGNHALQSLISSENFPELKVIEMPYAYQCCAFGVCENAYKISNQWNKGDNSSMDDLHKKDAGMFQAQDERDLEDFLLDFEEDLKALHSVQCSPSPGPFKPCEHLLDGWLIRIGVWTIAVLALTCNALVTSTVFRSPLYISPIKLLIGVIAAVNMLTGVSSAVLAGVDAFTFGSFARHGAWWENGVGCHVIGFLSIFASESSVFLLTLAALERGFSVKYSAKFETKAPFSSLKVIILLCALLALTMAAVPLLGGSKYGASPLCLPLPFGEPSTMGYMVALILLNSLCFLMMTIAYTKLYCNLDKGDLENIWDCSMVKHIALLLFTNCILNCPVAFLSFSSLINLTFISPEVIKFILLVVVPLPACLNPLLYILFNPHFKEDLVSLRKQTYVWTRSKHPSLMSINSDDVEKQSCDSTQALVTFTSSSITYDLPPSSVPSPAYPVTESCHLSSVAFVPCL
experiment.notes: NanoBRET screen HiBiT-LGR5 in HEK293
Format: binding
reported.conditions: LGR5; tracer 1μM
Each entry below lists one item and its recorded NanoBRET Fold Response value.
Just the number, please, no unit after it.

Examples from the recorded data:
[
  {
    "compound": "O=C(CCc1ccc2n1[B-](F)(F)[N+]1=C(c3ccc[nH]3)C=CC1=C2)NCCOCCOCCNC(=O)OCCOCCN1CCN(C2=Nc3ccccc3Sc3ccccc32)CC1",
    "NanoBRET Fold Response": 0.78
  },
  {
    "compound": "COc1ccccc1N1CCN(CCCCN2C(=O)c3ccc(CNC(=O)CCOCCOCCOCCOCCNC(=O)CCc4ccc5n4[B-](F)(F)[N+]4=C(c6ccc[nH]6)C=CC4=C5)cc3C2=O)CC1",
    "NanoBRET Fold Response": 0.83
  },
  {
    "compound": "O=C(CCOCCOCCOCCOCCNC(=O)CCc1ccc2n1[B-](F)(F)[N+]1=C(c3ccc[nH]3)C=CC1=C2)NCCCN1CCN(C2=Nc3ccccc3Oc3ccc(Cl)cc32)CC1",
    "NanoBRET Fold Response": 0.97
  },
  {
    "compound": "COc1ccccc1N1CCN(CCCCN2C(=O)c3ccc(CNC(=O)CCOCCNC(=O)c4ccc(CNC(=O)CCc5ccc6n5[B-](F)(F)[N+]5=C(c7ccc[nH]7)C=CC5=C6)cc4)cc3C2=O)CC1",
    "NanoBRET Fold Response": 0.72
  },
  {
    "compound": "N#CN=C(NCCCOc1cccc(CN2CCCCC2)c1)NCCNC(=O)CCOCCOCCOCCOCCNC(=O)CCc1ccc2n1[B-](F)(F)[N+]1=C(c3ccc[nH]3)C=CC1=C2",
    "NanoBRET Fold Response": 1.15
  },
  {
    "compound": "CC(C)N(CC[C@H](c1ccccc1)c1cc(CCNC(=O)CCOCCOCCOCCOCCNC(=O)CCc2ccc3n2[B-](F)(F)[N+]2=C(c4ccc[nH]4)C=CC2=C3)ccc1O)C(C)C",
    "NanoBRET Fold Response": 0.71
  },
  {
    "compound": "CC(C)N(CC[C@H](c1ccccc1)c1cc(CCNC(=O)c2ccc(CNC(=O)CCc3ccc4n3[B-](F)(F)[N+]3=C(c5ccc[nH]5)C=CC3=C4)cc2)ccc1O)C(C)C",
    "NanoBRET Fold Response": 0.89
  },
  {
    "compound": "Cc1cc2c(s1)Nc1ccccc1N=C2N1CCN(CCCNC(=O)CCOCCOCCOCCOCCNC(=O)CCc2ccc3n2[B-](F)(F)[N+]2=C(c4ccc[nH]4)C=CC2=C3)CC1",
    "NanoBRET Fold Response": 0.81
  }
]

The compound `CCCn1c(=O)c2[nH]c(-c3ccc(OCC(=O)NCCNC(=O)CCOCCNC(=O)c4ccc(CNC(=O)CCc5ccc6n5[B-](F)(F)[N+]5=C(c7ccc[nH]7)C=CC5=C6)cc4)cc3)nc2n(CCC)c1=O` showed NanoBRET Fold Response equal to 0.89

The compound Cc1nc2n(c(=O)c1CCN1CCC(c3noc4cc(F)ccc34)CC1)CCCC2OC(=O)NCCOCCOCCOCCOCCNC(=O)CCc1ccc2n1[B-](F)(F)[N+]1=C(c3ccc[nH]3)C=CC1=C2 (centres unmarked) showed NanoBRET Fold Response equal to 1.18

The compound O=C(CCc1ccc2n1[B-](F)(F)[N+]1=C(c3ccc[nH]3)C=CC1=C2)NCc1ccc(C(=O)NCCOCCC(=O)N[C@@H]2CC[C@@]3(O)[C@H]4Cc5ccc(O)c6c5[C@@]3(CCN4CC3CC3)[C@H]2O6)cc1 [Naltrexone-3-NB590] showed NanoBRET Fold Response equal to 1.33

----------
test.target: FZD4 (Homo sapiens)
Construct: purchased Promega (in-house HiBiT-GPCR construct library, NanoBRET)
Sequence (Q9ULV1 37-537): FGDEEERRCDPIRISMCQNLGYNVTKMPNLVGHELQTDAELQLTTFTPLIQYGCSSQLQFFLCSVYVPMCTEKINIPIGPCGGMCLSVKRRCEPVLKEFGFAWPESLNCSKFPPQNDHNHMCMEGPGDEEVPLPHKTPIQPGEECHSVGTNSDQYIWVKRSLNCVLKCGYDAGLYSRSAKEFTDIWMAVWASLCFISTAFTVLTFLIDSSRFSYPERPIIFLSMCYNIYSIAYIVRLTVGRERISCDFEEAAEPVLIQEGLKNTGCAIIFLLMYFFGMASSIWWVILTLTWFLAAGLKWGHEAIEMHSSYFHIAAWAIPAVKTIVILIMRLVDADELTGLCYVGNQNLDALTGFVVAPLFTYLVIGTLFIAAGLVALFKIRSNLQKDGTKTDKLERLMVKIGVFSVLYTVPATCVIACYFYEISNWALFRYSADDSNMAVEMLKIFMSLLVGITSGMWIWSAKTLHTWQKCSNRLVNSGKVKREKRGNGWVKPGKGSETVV
experiment.notes: NanoBRET screen HiBiT-FZD4 in HEK293
Format: binding
reported.conditions: FZD4; tracer 1μM
parameter: NanoBRET Fold Response
Just the number, please, no unit after it.

[
  {
    "molecule": "N#CN=C(NCCCOc1cccc(CN2CCCCC2)c1)NCCNC(=O)CCOCCOCCOCCOCCNC(=O)CCc1ccc2n1[B-](F)(F)[N+]1=C(c3ccc[nH]3)C=CC1=C2",
    "NanoBRET Fold Response": 1.07
  },
  {
    "molecule": "O=C(CCc1ccc2n1[B-](F)(F)[N+]1=C(c3ccc[nH]3)C=CC1=C2)NCc1ccc(C(=O)NCCOCCC(=O)N[C@@H]2CC[C@@]3(O)[C@H]4Cc5ccc(O)c6c5[C@@]3(CCN4CC3CC3)[C@H]2O6)cc1 [Naltrexone-3-NB590]",
    "NanoBRET Fold Response": 1.14
  },
  {
    "molecule": "O=C(CCc1ccc2n1[B-](F)(F)[N+]1=C(c3ccc[nH]3)C=CC1=C2)NCCOCCOCCNC(=O)OCCOCCN1CCN(C2=Nc3ccccc3Sc3ccccc32)CC1",
    "NanoBRET Fold Response": 0.91
  },
  {
    "molecule": "CCCn1c(=O)c2[nH]c(-c3ccc(OCC(=O)NCCNC(=O)CCOCCNC(=O)c4ccc(CNC(=O)CCc5ccc6n5[B-](F)(F)[N+]5=C(c7ccc[nH]7)C=CC5=C6)cc4)cc3)nc2n(CCC)c1=O",
    "NanoBRET Fold Response": 1.12
  },
  {
    "molecule": "O=C(CCOCCOCCOCCOCCNC(=O)CCc1ccc2n1[B-](F)(F)[N+]1=C(c3ccc[nH]3)C=CC1=C2)NCCCN1CCN(C2=Nc3ccccc3Oc3ccc(Cl)cc32)CC1",
    "NanoBRET Fold Response": 0.89
  }
]

The molecule `Cc1cc2c(s1)Nc1ccccc1N=C2N1CCN(CCCNC(=O)CCOCCOCCOCCOCCNC(=O)CCc2ccc3n2[B-](F)(F)[N+]2=C(c4ccc[nH]4)C=CC2=C3)CC1` showed NanoBRET Fold Response equal to 0.93

The molecule `COc1ccccc1N1CCN(CCCCN2C(=O)c3ccc(CNC(=O)CCOCCOCCOCCOCCNC(=O)CCc4ccc5n4[B-](F)(F)[N+]4=C(c6ccc[nH]6)C=CC4=C5)cc3C2=O)CC1` showed NanoBRET Fold Response equal to 1.08

----------
Each entry below lists one item and its recorded NanoBRET Fold Response value.
test.target: CNR2 (Homo sapiens, UniProt P34972)
Construct: purchased Promega (in-house HiBiT-GPCR construct library, NanoBRET)
Sequence (P34972 whole entry): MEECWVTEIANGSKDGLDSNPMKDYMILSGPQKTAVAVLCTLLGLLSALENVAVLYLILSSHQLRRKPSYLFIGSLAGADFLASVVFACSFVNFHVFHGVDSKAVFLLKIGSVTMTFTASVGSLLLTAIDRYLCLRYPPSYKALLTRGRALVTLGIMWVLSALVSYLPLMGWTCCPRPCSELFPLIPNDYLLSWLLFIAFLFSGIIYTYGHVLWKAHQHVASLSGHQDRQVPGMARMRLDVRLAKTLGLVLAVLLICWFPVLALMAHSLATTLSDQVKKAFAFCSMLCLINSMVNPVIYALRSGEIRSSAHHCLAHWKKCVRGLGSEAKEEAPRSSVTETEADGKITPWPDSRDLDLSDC
experiment.notes: NanoBRET screen HiBiT-CNR2 in HEK293
Format: binding
reported.conditions: CNR2; tracer 1μM
Experimental: Each tracer candidate was screened across the entire library of HiBiT-GPCR constructs using NanoBRET as the detection modality. As depicted in Figure 4A, the specificity of interactions was evaluated through decrease in BRET due to competitive displacement of a bound tracer by excess parental compound. Each tracer was analyzed for binding to each HiBiT-GPCR fusion in the absence and in the presence of competing parental compound. […]
Just the number, please, no unit after it.

Examples from the recorded data:
[
  {
    "compound": "O=C(CCOCCOCCOCCOCCNC(=O)CCc1ccc2n1[B-](F)(F)[N+]1=C(c3ccc[nH]3)C=CC1=C2)NCCCN1CCN(C2=Nc3ccccc3Oc3ccc(Cl)cc32)CC1",
    "test.target": "CNR2 (Homo sapiens, UniProt P34972)",
    "NanoBRET Fold Response": 1.25
  },
  {
    "compound": "Cc1nc2n(c(=O)c1CCN1CCC(c3noc4cc(F)ccc34)CC1)CCCC2OC(=O)NCCOCCOCCOCCOCCNC(=O)CCc1ccc2n1[B-](F)(F)[N+]1=C(c3ccc[nH]3)C=CC1=C2 (centres unmarked)",
    "test.target": "CNR2 (Homo sapiens, UniProt P34972)",
    "NanoBRET Fold Response": 1.12
  },
  {
    "compound": "N#CN=C(NCCCOc1cccc(CN2CCCCC2)c1)NCCNC(=O)CCOCCOCCOCCOCCNC(=O)CCc1ccc2n1[B-](F)(F)[N+]1=C(c3ccc[nH]3)C=CC1=C2",
    "test.target": "CNR2 (Homo sapiens, UniProt P34972)",
    "NanoBRET Fold Response": 1.16
  }
]

The compound `O=C(CCc1ccc2n1[B-](F)(F)[N+]1=C(c3ccc[nH]3)C=CC1=C2)NCCOCCOCCNC(=O)OCCOCCN1CCN(C2=Nc3ccccc3Sc3ccccc32)CC1` showed NanoBRET Fold Response equal to 1.29

The compound `Cc1cc2c(s1)Nc1ccccc1N=C2N1CCN(CCCNC(=O)CCOCCOCCOCCOCCNC(=O)CCc2ccc3n2[B-](F)(F)[N+]2=C(c4ccc[nH]4)C=CC2=C3)CC1` showed NanoBRET Fold Response equal to 1.06

The compound `CC(C)N(CC[C@H](c1ccccc1)c1cc(CCNC(=O)CCOCCOCCOCCOCCNC(=O)CCc2ccc3n2[B-](F)(F)[N+]2=C(c4ccc[nH]4)C=CC2=C3)ccc1O)C(C)C` showed NanoBRET Fold Response equal to 1.11

The compound `COc1ccccc1N1CCN(CCCCN2C(=O)c3ccc(CNC(=O)CCOCCNC(=O)c4ccc(CNC(=O)CCc5ccc6n5[B-](F)(F)[N+]5=C(c7ccc[nH]7)C=CC5=C6)cc4)cc3C2=O)CC1` showed NanoBRET Fold Response equal to 1.15

The compound `CN(C)CCC=C1c2ccccc2CCc2ccc(C(=O)NCCNC(=O)CCOCCOCCOCCOCCNC(=O)CCc3ccc4n3[B-](F)(F)[N+]3=C(c5ccc[nH]5)C=CC3=C4)cc21` showed NanoBRET Fold Response equal to 1.05

The compound `CC(C)N(CC[C@H](c1ccccc1)c1cc(CCNC(=O)c2ccc(CNC(=O)CCc3ccc4n3[B-](F)(F)[N+]3=C(c5ccc[nH]5)C=CC3=C4)cc2)ccc1O)C(C)C` showed NanoBRET Fold Response equal to 0.25

The compound O=C(CCc1ccc2n1[B-](F)(F)[N+]1=C(c3ccc[nH]3)C=CC1=C2)NCc1ccc(C(=O)NCCOCCC(=O)N[C@@H]2CC[C@@]3(O)[C@H]4Cc5ccc(O)c6c5[C@@]3(CCN4CC3CC3)[C@H]2O6)cc1 [Naltrexone-3-NB590] showed NanoBRET Fold Response equal to 0.91

The compound `CCCn1c(=O)c2[nH]c(-c3ccc(OCC(=O)NCCNC(=O)CCOCCNC(=O)c4ccc(CNC(=O)CCc5ccc6n5[B-](F)(F)[N+]5=C(c7ccc[nH]7)C=CC5=C6)cc4)cc3)nc2n(CCC)c1=O` showed NanoBRET Fold Response equal to 1.09
